# test.method.notes: Pharmacokinetic study in mouse
# Assay type: in vivo, CD-1 mouse
# experimental.context: male, plasma; CD-1 mouse, IV bolus, 5 mg/kg
outcome.measure: Cmax (µM)
Write the answer as a number in µM, unit excluded.

// Cmax lookup, key: CC(C)N(C[C@H]1O[C@@H](n2cnc3c(N)ncnc32)[C@H](O)[C@@H]1O)[C@H]1C[C@@H](CCc2nc3cc(C(C)(C)C)ccc3[nH]2)C1
7.99

* * *

# test.method.notes: Liver microsome stability, mouse
# Assay type: in vitro ADME
# experimental.context: liver microsomes, pH 7.4, NADPH, 3 μM
outcome.measure: microsomal CLint at 3 μM (µL/min/mg)
// return numeric value only (unit: µL/min/mg, not printed)

# query: microsomal CLint at 3 μM of entry CC(C)N(C[C@H]1O[C@@H](n2cnc3c(N)ncnc32)[C@H](O)[C@@H]1O)[C@H]1C[C@@H](CCc2nc3cc(C(C)(C)C)ccc3[nH]2)C1
150

* * *

# test.method.notes: Pharmacokinetic study in mouse
# Assay type: in vivo, CD-1 mouse
# experimental.context: male, plasma; CD-1 mouse, IV bolus, 5 mg/kg
outcome.measure: Tmax (min)
// note: answer is a bare numeric in min

Dear colleague, I am looking for the recorded Tmax of the following compound: CC(C)N(C[C@H]1O[C@@H](n2cnc3c(N)ncnc32)[C@H](O)[C@@H]1O)[C@H]1C[C@@H](CCc2nc3cc(C(C)(C)C)ccc3[nH]2)C1
3

* * *

# test.method.notes: Pharmacokinetic study in rat
# Assay type: in vivo, Sprague-Dawley rat
# experimental.context: male, Sprague-Dawley, plasma; SD rat, IV bolus, 1 mg/kg
outcome.measure: AUC(0-t)
For clarity, give the value followed by its unit.

Find the recorded AUC(0-t) belonging to CC(C)N(C[C@H]1O[C@@H](n2cnc3c(N)ncnc32)[C@H](O)[C@@H]1O)[C@H]1C[C@@H](CCc2nc3cc(C(C)(C)C)ccc3[nH]2)C1 and report it.
0.43 µM·h

* * *

# test.method.notes: Plasma protein binding by equilibrium dialysis, rat
# Assay type: in vitro ADME
# experimental.context: male, Sprague-Dawley, pH 7.4, read-out: Plasma free fraction
outcome.measure: fraction unbound at 5 μM
Lab note: jot down the number only; don't add units.

May I ask what fraction unbound at 5 μM has been recorded for CC(C)N(C[C@H]1O[C@@H](n2cnc3c(N)ncnc32)[C@H](O)[C@@H]1O)[C@H]1C[C@@H](CCc2nc3cc(C(C)(C)C)ccc3[nH]2)C1 ?
0.272

* * *

# test.method.notes: MDCK cell permeability, native cells
# Type: in vitro ADME
# experimental.context: dog, Basolateral-to-apical
# Protocol: Samples were taken from the donor and receiver chambers at 120 minutes. Each determination was performed in duplicate. Co-dosed lucifer yellow flux was also measured for each monolayer to ensure cell monolayers remained intact during the incubation. All samples were assayed by LC-MS/MS.
outcome.measure: Papp B→A at 120 min, 10 uM (×10⁻⁶ cm/s)
Dear colleague, please return just the value in ×10⁻⁶ cm/s, with no unit written.

Fill in: Papp B→A at 120 min, 10 uM of CC(C)N(C[C@H]1O[C@@H](n2cnc3c(N)ncnc32)[C@H](O)[C@@H]1O)[C@H]1C[C@@H](CCc2nc3cc(C(C)(C)C)ccc3[nH]2)C1 is ___
0.3

* * *

# test.method.notes: Hepatocyte stability, dog
# Assay type: in vitro ADME, Beagle dog
# experimental.context: beagle, cryopreserved hepatocytes in suspension, pH 7.4, 3 μM
outcome.measure: hepatocyte CLint at 3 μM (µL/min/1e6 cells)
Supply the numeric figure in µL/min/1e6 cells, leaving out any unit text.

// query hepatocyte CLint at 3 μM value for entry CC(C)N(C[C@H]1O[C@@H](n2cnc3c(N)ncnc32)[C@H](O)[C@@H]1O)[C@H]1C[C@@H](CCc2nc3cc(C(C)(C)C)ccc3[nH]2)C1
14.9

* * *

# test.method.notes: Pharmacokinetic study in rat
# Assay type: in vivo, Sprague-Dawley rat
# experimental.context: male, Sprague-Dawley, rat, plasma, iv, 1 mg/kg, SD rat, IV bolus, 1 mg/kg; read-out: CL
outcome.measure: clearance (mL/min/kg)
Number in mL/min/kg, nothing else.

Give its clearance value. Item: CC(C)N(C[C@H]1O[C@@H](n2cnc3c(N)ncnc32)[C@H](O)[C@@H]1O)[C@H]1C[C@@H](CCc2nc3cc(C(C)(C)C)ccc3[nH]2)C1
68

* * *

# test.method.notes: Pharmacokinetic study in dog
# Format: in vivo, Beagle dog
# experimental.context: male, plasma; Beagle dog, IV bolus, 1 mg/kg
outcome.measure: Tmax (min)
A number alone suffices; assume min.

Using the record for CC(C)N(C[C@H]1O[C@@H](n2cnc3c(N)ncnc32)[C@H](O)[C@@H]1O)[C@H]1C[C@@H](CCc2nc3cc(C(C)(C)C)ccc3[nH]2)C1 , report its Tmax.
4.98

* * *

# test.method.notes: Pharmacokinetic study in rat
# Type: in vivo, Sprague-Dawley rat
# experimental.context: male, Sprague-Dawley, plasma; SD rat, IV bolus, 1 mg/kg
outcome.measure: AUC(0-inf) (µM·h)
Provide only the numeric value, understood in µM·h.

Fill in the blank: the reported AUC(0-inf) of CC(C)N(C[C@H]1O[C@@H](n2cnc3c(N)ncnc32)[C@H](O)[C@@H]1O)[C@H]1C[C@@H](CCc2nc3cc(C(C)(C)C)ccc3[nH]2)C1 is ____.
0.44

* * *

# test.method.notes: Pharmacokinetic study in rat
# Type: in vivo, Sprague-Dawley rat
# experimental.context: male, Sprague-Dawley, plasma; SD rat, PO, 10 mg/kg
outcome.measure: Cmax (nM)
Just the number please, in nM, no unit attached.

Which Cmax value is on record for CC(C)N(C[C@H]1O[C@@H](n2cnc3c(N)ncnc32)[C@H](O)[C@@H]1O)[C@H]1C[C@@H](CCc2nc3cc(C(C)(C)C)ccc3[nH]2)C1 ?
0.7

* * *

# System: P-glycoprotein (MDR1)
# test.method.notes: MDCK cell permeability, MDR1-transfected cells
# Type: in vitro ADME, dog
# experimental.context: dog; MDCK - MDR1 transfected, Basolateral-to-apical, 10 uM
outcome.measure: Papp B→A at 120 min, 10 uM (×10⁻⁶ cm/s)
Give the number; ×10⁻⁶ cm/s is assumed, so skip it.

Lookup: Papp B→A at 120 min, 10 uM / P-glycoprotein (MDR1) / CC(C)N(C[C@H]1O[C@@H](n2cnc3c(N)ncnc32)[C@H](O)[C@@H]1O)[C@H]1C[C@@H](CCc2nc3cc(C(C)(C)C)ccc3[nH]2)C1
0.22

* * *

# test.method.notes: Pharmacokinetic study in rat
# Assay type: in vivo, Sprague-Dawley rat
# experimental.context: male, Sprague-Dawley, plasma; SD rat, IV bolus, 1 mg/kg
outcome.measure: Cmax

Which Cmax value belongs to CC(C)N(C[C@H]1O[C@@H](n2cnc3c(N)ncnc32)[C@H](O)[C@@H]1O)[C@H]1C[C@@H](CCc2nc3cc(C(C)(C)C)ccc3[nH]2)C1 [Compound A] ?
2040 nM

* * *

# test.method.notes: Plasma stability, rat
# Format: in vitro ADME
# experimental.context: Sprague Dawley, pooled plasma, 37° C., read-out: Half-life in ex vivo blood plasma
outcome.measure: half-life at 1 μM

Which half-life at 1 μM value is on record for CC(C)N(C[C@H]1O[C@@H](n2cnc3c(N)ncnc32)[C@H](O)[C@@H]1O)[C@H]1C[C@@H](CCc2nc3cc(C(C)(C)C)ccc3[nH]2)C1 [Compound A] ?
> 120 min

* * *

# test.method.notes: Pharmacokinetic study in dog
# Format: in vivo, Beagle dog
# experimental.context: male, plasma; Beagle dog, IV bolus, 1 mg/kg
outcome.measure: AUC(0-inf) (µM·h)
Give the value, in units of µM·h, as a plain number.

Return reported AUC(0-inf); argument: CC(C)N(C[C@H]1O[C@@H](n2cnc3c(N)ncnc32)[C@H](O)[C@@H]1O)[C@H]1C[C@@H](CCc2nc3cc(C(C)(C)C)ccc3[nH]2)C1
1.6

* * *

# test.method.notes: Pharmacokinetic study in dog
# Type: in vivo, Beagle dog
# experimental.context: male, plasma; Beagle dog, IV bolus, 1 mg/kg
outcome.measure: Cmax (µM)
Express it in µM; write the number only.

Looking for the measured Cmax of CC(C)N(C[C@H]1O[C@@H](n2cnc3c(N)ncnc32)[C@H](O)[C@@H]1O)[C@H]1C[C@@H](CCc2nc3cc(C(C)(C)C)ccc3[nH]2)C1 , can you help?
5.06

* * *

# test.method.notes: Liver microsome stability, rat
# Format: in vitro ADME
# experimental.context: liver microsomes, pH 7.4, NADPH, 3 μM
outcome.measure: microsomal CLint at 3 μM (µL/min/mg)
Answer format: numeric, µL/min/mg implied, no suffix.

Which microsomal CLint at 3 μM value is on record for CC(C)N(C[C@H]1O[C@@H](n2cnc3c(N)ncnc32)[C@H](O)[C@@H]1O)[C@H]1C[C@@H](CCc2nc3cc(C(C)(C)C)ccc3[nH]2)C1 ?
72

* * *

# test.method.notes: Plasma protein binding by equilibrium dialysis, human
# Assay type: in vitro ADME
# experimental.context: both sexes, pH 7.4, read-out: Plasma free fraction
outcome.measure: fraction unbound at 5 μM
Reply briefly: the number, and no unit.

Fill blank: measured fraction unbound at 5 μM of the compound CC(C)N(C[C@H]1O[C@@H](n2cnc3c(N)ncnc32)[C@H](O)[C@@H]1O)[C@H]1C[C@@H](CCc2nc3cc(C(C)(C)C)ccc3[nH]2)C1 is ____.
0.125
